B1: ZNF263 (parent)
chain: EKPYKCPECGEIFAHSSNLLRHQR

- Variants of: B1
- procedure details: protein stability index of a GFP-peptide fusion (GPS, HEK-293T) (PSI 1-6); higher = more stable;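 note: lentivirally expressed fusions sorted by FACS into six bins by GFP to DsRed ratio, PSI derived from sequencing read proportions per bin multiplied by bin number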
- experimental conditions: c terminus: a fixed tail appended
metric name: protein stability index
The response must contain the number and no unit.

Examples with answers:
sequence variant	protein stability index
A14E	4.13
E1C	1.85
S17I	2.89
Q23L	2.86
E1S	2.44
C9P	3.86
S17H	3.51
G10W	2.14

Report measured protein stability index; entry is `R24D`
3.96

Return value of protein stability index for input `P3R` , no commentary.
1.89

Could you please provide reported protein stability index for `K2C` ? Thanks!
3.25
